Taken from the supplement of paper PMC10567573.

B1: JUNB (parent)
chain: FVKALDDLHKMNHVTPPNVSLGAT

- Variants of: B1
- experimental-details: protein stability index of a GFP-peptide fusion (GPS, HEK-293T) (PSI 1-6); higher = more stable;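 further: lentivirally expressed fusions sorted by FACS into six bins by GFP to DsRed ratio, PSI derived from sequencing read proportions per bin multiplied by bin number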
- experimental-context: c terminus: a fixed tail appended
# if value of protein stability index reaches 2, tag satisfied; if it stays below, tag not satisfied

# variant-descriptor, group-label
measured = [
    ("N18G", "not satisfied"),
    ("P16Y", "not satisfied"),
    ("L21D", "satisfied"),
    ("V2R", "satisfied"),
    ("N12V", "not satisfied"),
    ("F1A", "satisfied"),
    ("H13S", "not satisfied"),
    ("V19P", "not satisfied"),
    ("N18Q", "satisfied"),
    ("L5I", "not satisfied"),
    ("V19C", "satisfied"),
    ("D7Q", "not satisfied"),
    ("L8Y", "not satisfied"),
    ("F1L", "satisfied"),
    ("A4D", "satisfied"),
    ("A23Q", "not satisfied"),
    ("L5Y", "satisfied"),
    ("L8D", "not satisfied"),
    ("V19G", "not satisfied"),
    ("H9I", "not satisfied"),
    ("N18F", "satisfied"),
    ("L8M", "not satisfied"),
    ("H13W", "satisfied"),
    ("L21K", "satisfied"),
    ("M11Q", "satisfied"),
    ("K3P", "satisfied"),
    ("D6Q", "not satisfied"),
    ("A4Y", "satisfied"),
    ("P17I", "not satisfied"),
    ("V14C", "satisfied"),
    ("N18Y", "not satisfied"),
    ("D7R", "not satisfied"),
    ("D7P", "satisfied"),
    ("V14P", "not satisfied"),
    ("H9M", "satisfied"),
    ("M11D", "satisfied"),
    ("K3A", "not satisfied"),
    ("M11R", "satisfied"),
    ("D6S", "not satisfied"),
    ("L8S", "satisfied"),
    ("L21G", "satisfied"),
    ("V19A", "not satisfied"),
    ("A4P", "satisfied"),
    ("A23P", "satisfied"),
    ("K3R", "not satisfied"),
    ("S20M", "not satisfied"),
    ("H9Y", "not satisfied"),
    ("K10S", "satisfied"),
    ("V2Y", "satisfied"),
    ("D7K", "not satisfied"),
    ("L8G", "satisfied"),
    ("V2I", "satisfied"),
    ("L8I", "satisfied"),
    ("D7W", "satisfied"),
    ("V2C", "satisfied"),
    ("D6P", "satisfied"),
    ("H9W", "satisfied"),
    ("L8P", "satisfied"),
    ("H9N", "not satisfied"),
    ("M11Y", "not satisfied"),
    ("T15K", "satisfied"),
    ("S20C", "not satisfied"),
    ("V2G", "satisfied"),
    ("S20I", "not satisfied"),
    ("P17W", "satisfied"),
    ("D7H", "satisfied"),
    ("F1V", "satisfied"),
    ("N18R", "satisfied"),
    ("A4F", "not satisfied"),
    ("L5F", "satisfied"),
    ("L21E", "satisfied"),
    ("P17A", "not satisfied"),
    ("V14G", "satisfied"),
    ("A23M", "not satisfied"),
    ("M11H", "not satisfied"),
    ("L21F", "satisfied"),
    ("T15E", "not satisfied"),
    ("D6G", "satisfied"),
    ("L8C", "not satisfied"),
    ("N18E", "not satisfied"),
    ("V19S", "not satisfied"),
    ("M11G", "not satisfied"),
    ("L21C", "not satisfied"),
    ("D6I", "satisfied"),
    ("T24Y", "not satisfied"),
    ("L5K", "satisfied"),
    ("D7I", "satisfied"),
]
